Values compiled from ChEMBL document CHEMBL5331095.

targetUnderTest: Proprotein convertase subtilisin/kexin type 9 (Homo sapiens) (UniProt Q8NBP7)
Sequence (Q8NBP7 31-152 limits assumed): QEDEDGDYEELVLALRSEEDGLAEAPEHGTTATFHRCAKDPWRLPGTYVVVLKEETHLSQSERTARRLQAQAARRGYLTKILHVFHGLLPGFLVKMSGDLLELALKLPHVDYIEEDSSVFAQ
Sequence (Q8NBP7 153-692 limits assumed): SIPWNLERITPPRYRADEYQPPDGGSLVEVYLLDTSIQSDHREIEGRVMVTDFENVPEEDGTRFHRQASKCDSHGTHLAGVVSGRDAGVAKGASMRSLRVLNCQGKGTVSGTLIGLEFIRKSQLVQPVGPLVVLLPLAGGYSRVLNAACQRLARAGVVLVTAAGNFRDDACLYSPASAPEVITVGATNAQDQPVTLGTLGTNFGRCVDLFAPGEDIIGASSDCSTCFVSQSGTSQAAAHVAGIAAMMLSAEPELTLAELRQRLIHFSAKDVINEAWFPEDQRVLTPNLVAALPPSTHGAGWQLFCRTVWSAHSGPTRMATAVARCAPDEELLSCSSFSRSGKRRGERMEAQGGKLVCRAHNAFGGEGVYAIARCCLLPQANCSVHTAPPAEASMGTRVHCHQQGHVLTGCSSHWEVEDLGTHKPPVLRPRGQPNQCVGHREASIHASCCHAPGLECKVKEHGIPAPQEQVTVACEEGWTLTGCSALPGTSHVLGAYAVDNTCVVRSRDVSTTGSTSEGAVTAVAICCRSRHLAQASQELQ
experimentDescription: Inhibition of PCSK9 transcriptional activity in human HepG2 cells stably expressing luciferase reporter plasmid containing PCSK9 promoter assessed as decrease in luciferase activity at 10 ug/ml incubated for 24 hrs by Luciferase assay relative to control
Type: cell-based
testParameters: dose 10.0 µg/ml
Task for the reader: assign each of the following compounds its reported inhibition.
Numbers only, in %.

Request: Given `COc1cccc(Cn2c(N3CCC(CCN(C)C)CC3)nc3c2c(=O)n(C)c(=O)n3C)c1` , state its recorded inhibition.
Response: 17.4

Request: Given `COc1cccc(Cn2c(N[C@@H](CO)C(C)C)nc3c2c(=O)n(C)c(=O)n3C)c1` , state its recorded inhibition.
Response: 18.9

Request: Given `COc1cccc(Cn2c(NCCCCO)nc3c2c(=O)n(C)c(=O)n3C)c1` , state its recorded inhibition.
Response: 41.4

Hi team, please reply with inhibition for each item in this list.
1. COc1cccc(Cn2c(NCCCN(C)C)nc3c2c(=O)n(C)c(=O)n3C)c1
2. COc1cccc(Cn2c(NCCCO)nc3c2c(=O)n(C)c(=O)n3C)c1
3. Cn1c(=O)c2c(nc(NCCO)n2Cc2ccccc2)n(C)c1=O
4. COc1cccc(Cn2c(N(C)CCO)nc3c2c(=O)n(C)c(=O)n3C)c1
5. COc1cccc(Cn2c(NCCC3CCN(C)C3)nc3c2c(=O)n(C)c(=O)n3C)c1 (stereo not drawn)

Response:
1: 2.3; 2: 60.1; 3: 80.4; 4: 9.4; 5: 16.7
